# reported measured pH value of trace element solution; entries follow
- assay-explanation: Trace element solutions with different chelating agents: pH, color and precipitation
- Assay type: physicochemical
- measurement-parameters: after addition of all salts and final mixing; chelating agent equimolar to divalent cations
- Description: A trace element solution was mixed together with one of the following chelating agents: citric acid, […], DTPA, EGTA, or […]. Therefore, at first each chelating agent was weight equimolar to the utilized divalent cations. […] After each compound supplementation the solutions were characterized regarding pH value, color and precipitation. After the addition of the last compound, i.e., Na2MoO4, the solutions were aliquoted. […]
Give a plain numeric answer without units written out.

Worked set:
compound	observed-measurement
O=C(O)CC(O)(CC(=O)O)C(=O)O [citric acid]	4.6
CC(C(=O)O)N(CC(=O)O)CC(=O)O (centres unmarked) [MGDA, methyl glycine diacetic acid]	2.8
O=C(O)CN(CC(=O)O)CC(=O)O [NTA, nitrilotriacetic acid]	2.5
O=C(O)CN(CCN(CC(=O)O)CC(=O)O)CC(=O)O [EDTA, ethylene diamine tetraacetic acid]	3
O=C(O)CN(CCN(CC(=O)O)CC(=O)O)CCN(CC(=O)O)CC(=O)O [DTPA, diethylene triamine pentaacetic acid]	2.6

Exercise: Given the entry O=C(O)CN(CCOCCOCCN(CC(=O)O)CC(=O)O)CC(=O)O [EGTA, ethylene glycol tetraacetic acid] , report its measured measured pH value of trace element solution.
Solution: 2.7

Exercise: Item: O=C(O)CN(CCO)CCN(CC(=O)O)CC(=O)O [HEEDTA]
Solution: 2.6

Exercise: Item: O=C(O)CC[C@@H](C(=O)O)N(CC(=O)O)CC(=O)O [GLDA, glutamic acid N,N-diacetic acid]
Solution: 3.7
